These measurements were taken from ChEMBL document CHEMBL1201862.

Tested on: SN12C
ASSAY_DETAILS: NCI tumour cell line growth inhibition, 48 h
The source made the active and inactive calls. No stated cut-off is given here; in the data, active = GI50 up to about 1.1 µM and inactive = higher.

COMPOUND: CCOC(=O)C1Cc2[nH]c3ccccc3c2C(C)C1C (stereo unspecified)
GI50: 18.4 µM (inactive)
//
COMPOUND: Oc1ccc(C(c2ccc(O)cc2)c2ccc(O)cc2)cc1
GI50: 20.3 µM (inactive)
//
COMPOUND: O=C(COc1ccccc1Cl)N1N=C(c2ccc(Cl)cc2)CC1(O)c1ccccc1 (stereo unspecified)
GI50: > 100 µM (inactive)
//
COMPOUND: O=C(NNCC(O)COc1ccccc1)c1ccccc1 (stereo unspecified)
GI50: > 100 µM (inactive)
//
COMPOUND: COc1ccc([S+]([O-])Cc2cc(OC)c(OC)c(OC)c2)cc1 (stereo unspecified)
GI50: 54.8 µM (inactive)
//
COMPOUND: N#CC(c1ccccc1)c1nc2ccc(N)cc2[n+]([O-])c1C(C#N)c1ccccc1 (stereo unspecified)
GI50: 79.1 µM (inactive)

---

// GI50 lookup, one value per entry
Test system: DU-145
ASSAY_DETAILS: NCI tumour cell line growth inhibition, 48 h
The source made the active and inactive calls. No stated cut-off is given here; in the data, active = GI50 up to about 1.1 µM and inactive = higher.

COMPOUND: COC(=O)c1c2c(cc3c1CC1(Cc4cc5c(cc4C1)CCC5)C3)CCC2
SYSTEM_NAME: DU-145
GI50: > 100 µM (inactive)

COMPOUND: COC(=O)CC(c1ccccc1)C(C#N)(OP1(=O)OC(c2ccccc2)C(C)N1C)c1ccccc1 (stereo not drawn)
SYSTEM_NAME: DU-145
GI50: > 100 µM (inactive)

COMPOUND: Nc1ncnc2c1sc1nc3ccccc3n12
SYSTEM_NAME: DU-145
GI50: > 100 µM (inactive)

COMPOUND: O=C1NC(=S)NC(=O)C1C(c1ccc(Cl)cc1)C1C(=O)NC(=S)NC1=O.c1ccncc1
SYSTEM_NAME: DU-145
GI50: > 100 µM (inactive)

COMPOUND: Oc1nnnc2c1sc1ncccc12
SYSTEM_NAME: DU-145
GI50: > 100 µM (inactive)

COMPOUND: CCOC(=O)c1c(-c2ccccc2)c(OC)cn1C
SYSTEM_NAME: DU-145
GI50: > 10 µM (inactive)

COMPOUND: O1C2C1C1OC1C1OC1C1OC21 (stereo not drawn)
SYSTEM_NAME: DU-145
GI50: > 100 µM (inactive)

COMPOUND: CCOC(=O)C1=CN/C(=C(/C)C(=O)OC)SC1C(=O)OCC (stereo not drawn)
SYSTEM_NAME: DU-145
GI50: > 100 µM (inactive)

COMPOUND: O=C(O)CCCc1ccc(N(CCCl)CCCl)cc1
SYSTEM_NAME: DU-145
GI50: 61.4 µM (inactive)

COMPOUND: CS(=O)(=O)c1cc(=O)c2ccccc2s1
SYSTEM_NAME: DU-145
GI50: 16.1 µM (inactive)

COMPOUND: O=C1OI(C#Cc2ccccc2)c2ccccc21
SYSTEM_NAME: DU-145
GI50: 7.18 µM (inactive)

COMPOUND: c1ccc(-c2nc(-c3ccccc3)c(-c3ccccc3)[nH]2)cc1
SYSTEM_NAME: DU-145
GI50: > 100 µM (inactive)

COMPOUND: Nc1nc(O)nc2snnc12
SYSTEM_NAME: DU-145
GI50: 16.9 µM (inactive)

COMPOUND: CC(Br)CN1CCOCC1 (stereo not drawn)
SYSTEM_NAME: DU-145
GI50: > 100 µM (inactive)

COMPOUND: N=C(/C=C/c1ccc(-c2cn3cc(/C=C/C(=N)N4CCOCC4)ccc3n2)cc1)N1CCOCC1
SYSTEM_NAME: DU-145
GI50: > 100 µM (inactive)

COMPOUND: COC(=O)[C@]1(c2cc3ccccc3[nH]2)CC2CN(C(=O)OCc3ccccc3)C1C=C2OC (stereo partly drawn)
SYSTEM_NAME: DU-145
GI50: 35.5 µM (inactive)

COMPOUND: Cc1ccc(/C=C2\N=C(N3CCCCC3)NC2=O)cc1
SYSTEM_NAME: DU-145
GI50: > 100 µM (inactive)

COMPOUND: O=C(Nc1nc(C23CC4CC(CC(C4)C2)C3)cs1)c1cc2cc(Cl)ccc2oc1=O
SYSTEM_NAME: DU-145
GI50: > 100 µM (inactive)

COMPOUND: CC(C)(O)C1COC2=C1C(=O)c1ccccc1C2=O (stereo not drawn)
SYSTEM_NAME: DU-145
GI50: 20.9 µM (inactive)

COMPOUND: COc1nc(-c2cn(S(=O)(=O)c3ccc(C)cc3)c3ccc(Br)cc23)cc(C(F)(F)F)c1C#N
SYSTEM_NAME: DU-145
GI50: 16.5 µM (inactive)

COMPOUND: Cc1ccc(/C=C2\CCCC(CN3CCCCC3)C2=O)cc1 (stereo not drawn)
SYSTEM_NAME: DU-145
GI50: 11.7 µM (inactive)

COMPOUND: CCC(C)[C@H](NC(=O)[C@H](Cc1ccccc1)NC(=O)N(CC)c1ccccc1)C(=O)N[C@@H](CC(C)C)C(=O)OC (stereo partly drawn)
SYSTEM_NAME: DU-145
GI50: 33.9 µM (inactive)

COMPOUND: Cc1ncc([N+](=O)[O-])n1CCN=[N+]=[N-]
SYSTEM_NAME: DU-145
GI50: > 100 µM (inactive)

---

// GI50 lookup, one value per entry
Tested on: MOLT-4
ASSAY_DETAILS: NCI tumour cell line growth inhibition, 48 h
Calls of active or inactive are those of the source. Cut-off read from the data, not from the text of the source: active = GI50 up to about 1.1 µM and inactive = higher.

COMPOUND: COc1ccccc1C(C1=C(O)COC1=O)c1cc2c(cc1OC(C)=O)OCO2 (centres undefined)
GI50: > 100 µM (inactive)

COMPOUND: NC(=O)c1nnc2cc(F)c(F)cc2c1N
GI50: > 100 µM (inactive)

COMPOUND: Nc1nc(-c2ccco2)cc(-c2ccc(CO)o2)n1
GI50: > 100 µM (inactive)

COMPOUND: Nc1c(C(=O)Nc2ccc([As](=O)(O)O)cc2)cnc2nnnn12
GI50: > 100 µM (inactive)

COMPOUND: OC(c1ccccc1)(c1ccccc1)c1ccncc1
GI50: > 100 µM (inactive)

COMPOUND: COc1cc(/N=N\c2cccc(S(=O)(=O)O)c2)c(C)cc1/N=N\c1ccc(/C=C/c2ccc(/N=[N+](/[O-])c3ccc(/C=C/c4ccc(/N=N\c5cc(C)c(/N=N/c6cccc(S(=O)(=O)O)c6)cc5OC)cc4)c(S(=O)(=O)O)c3)cc2S(=O)(=O)O)cc1
GI50: > 100 µM (inactive)

COMPOUND: CSc1ccc2c(cc1=O)[C@@H](NC(=O)c1ccc(N)cc1)CCc1cc(O)c(O)c(O)c1-2
GI50: 33.1 µM (inactive)

COMPOUND: COC(=O)C1=C(C(=O)OC)SC(=C2c3ccsc3-c3sccc32)S1
GI50: 39.4 µM (inactive)

COMPOUND: Cc1cc(-c2ccccc2)nc(Nc2nc3ccccc3o2)n1
GI50: > 100 µM (inactive)

---

Test system: Malme-3M
ASSAY_DETAILS: NCI tumour cell line growth inhibition, 48 h
Active and inactive are the calls of the source. Cut-off read from the data, not from the text of the source: active = GI50 up to about 1.1 µM and inactive = higher.
Classes used: 1.0 (active), 0.0 (inactive)

COMPOUND: N/C(=N\OC(=O)NC(Cl)=C(Cl)Cl)c1cc(C(F)(F)F)cc(C(F)(F)F)c1
LABEL_VALUE: 0.0
--
COMPOUND: Cc1c(O)nc(/C=C/C(=O)O)nc1C(=O)O
LABEL_VALUE: 0.0
--
COMPOUND: N=C(N)c1ccc(/N=N/c2c(O)ccc3cc(O)ccc23)cc1
LABEL_VALUE: 0.0
--
COMPOUND: COc1ccc(CC2c3c(cc(OC)c(OC)c3OC)CCN2C)cc1OC (stereo not given)
LABEL_VALUE: 0.0
--
COMPOUND: COC1(OC)c2no[n+]([O-])c2C(OC)(OC)c2c1no[n+]2[O-]
LABEL_VALUE: 0.0
--
COMPOUND: OCC1OC(O)C(/N=C\c2ccc3c(c2)OCO3)C(O)C1O (stereo not given)
LABEL_VALUE: 0.0
--
COMPOUND: N=C(N)N/N=C(\c1ccc(F)cc1)c1ccc(C(F)(F)F)cc1
LABEL_VALUE: 1.0
--
COMPOUND: Cc1cc(N(CCC#N)CCC#N)ccc1C(/N=N/c1ccc([N+](=O)[O-])cc1)=N\NC(=O)c1cc(Cl)ccc1C(=O)c1ccccc1
LABEL_VALUE: 0.0
--
COMPOUND: CCN1CCCC(Nc2cc(C)nc(NC(=N)Nc3ccc(Cl)c(Cl)c3)n2)C1 (stereo not given)
LABEL_VALUE: 0.0
--
COMPOUND: CCCCCCCC/C=C1\CCC(CN(C)C)C1=O (stereo not given)
LABEL_VALUE: 0.0
